This section presents compounds with their documented pIC50 values.
molecular target: Integrin alpha-5/beta-1 (Homo sapiens, UniProt P05556+P08648); assay: Inhibition of alpha5beta1 integrin-mediated cell adhesion in human K562 cells on fibronectin coated plate after 30 mins
Sequence (P05556 21-798 limits assumed): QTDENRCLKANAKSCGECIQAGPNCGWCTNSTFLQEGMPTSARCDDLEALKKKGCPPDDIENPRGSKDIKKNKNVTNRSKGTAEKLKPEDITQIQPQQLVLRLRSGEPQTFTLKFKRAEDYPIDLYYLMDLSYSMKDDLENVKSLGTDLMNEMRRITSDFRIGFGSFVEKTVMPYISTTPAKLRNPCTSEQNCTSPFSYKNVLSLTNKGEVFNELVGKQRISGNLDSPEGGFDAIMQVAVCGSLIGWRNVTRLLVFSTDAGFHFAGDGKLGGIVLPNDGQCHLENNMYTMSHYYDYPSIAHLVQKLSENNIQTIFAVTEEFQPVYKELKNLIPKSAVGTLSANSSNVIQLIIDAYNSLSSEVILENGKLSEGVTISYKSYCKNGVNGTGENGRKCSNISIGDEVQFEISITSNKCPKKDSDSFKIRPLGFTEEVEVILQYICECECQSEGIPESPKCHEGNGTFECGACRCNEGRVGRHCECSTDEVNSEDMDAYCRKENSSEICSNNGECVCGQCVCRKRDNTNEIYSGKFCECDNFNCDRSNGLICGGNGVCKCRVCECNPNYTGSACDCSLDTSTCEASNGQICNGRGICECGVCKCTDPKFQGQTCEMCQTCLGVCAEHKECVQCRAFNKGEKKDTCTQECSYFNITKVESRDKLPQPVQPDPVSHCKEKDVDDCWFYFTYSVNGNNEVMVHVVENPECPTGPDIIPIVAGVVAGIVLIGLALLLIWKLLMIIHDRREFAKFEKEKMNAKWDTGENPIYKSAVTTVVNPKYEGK
Sequence (P08648 42-894 limits assumed): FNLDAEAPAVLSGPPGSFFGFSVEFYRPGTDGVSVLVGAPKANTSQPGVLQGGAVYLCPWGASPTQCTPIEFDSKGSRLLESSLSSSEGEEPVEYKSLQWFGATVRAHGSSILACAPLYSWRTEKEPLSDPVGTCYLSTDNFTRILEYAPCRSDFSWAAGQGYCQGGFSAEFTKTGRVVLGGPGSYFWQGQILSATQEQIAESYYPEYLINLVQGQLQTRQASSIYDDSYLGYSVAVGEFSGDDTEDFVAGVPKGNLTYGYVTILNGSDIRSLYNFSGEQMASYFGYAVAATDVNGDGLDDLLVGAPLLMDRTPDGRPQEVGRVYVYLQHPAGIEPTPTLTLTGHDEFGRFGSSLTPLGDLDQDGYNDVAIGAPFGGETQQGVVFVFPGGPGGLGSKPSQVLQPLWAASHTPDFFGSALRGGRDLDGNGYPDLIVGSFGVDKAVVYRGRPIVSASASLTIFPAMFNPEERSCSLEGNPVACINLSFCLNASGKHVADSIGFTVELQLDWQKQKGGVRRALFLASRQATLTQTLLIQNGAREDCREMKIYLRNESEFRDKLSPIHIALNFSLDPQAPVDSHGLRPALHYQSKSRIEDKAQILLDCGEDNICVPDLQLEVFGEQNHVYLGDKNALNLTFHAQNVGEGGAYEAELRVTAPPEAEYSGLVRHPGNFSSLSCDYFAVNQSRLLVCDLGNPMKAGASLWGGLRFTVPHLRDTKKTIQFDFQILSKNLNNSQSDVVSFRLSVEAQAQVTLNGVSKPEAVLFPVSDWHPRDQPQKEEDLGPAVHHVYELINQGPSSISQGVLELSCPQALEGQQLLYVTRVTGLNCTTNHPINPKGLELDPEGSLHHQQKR
Sequence (P08648 895-1049 limits assumed): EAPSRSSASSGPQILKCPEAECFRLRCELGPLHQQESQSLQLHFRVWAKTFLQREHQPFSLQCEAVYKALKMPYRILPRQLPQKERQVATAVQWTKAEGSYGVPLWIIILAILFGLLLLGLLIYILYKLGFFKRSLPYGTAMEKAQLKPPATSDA
pIC50: −log10 of the molar value. Non-standard residues stand in square brackets, D forms with d. Residues, ends and D or L forms follow the SMILES beside them.

[
  {
    "COMPOUND": "NC(N)=NCCC[C@H]1NC(=O)CC(=O)N[C@H](CC(=O)O)C(=O)N[C@@H](Cc2ccccc2)CNC1=O",
    "RESULT": "< 4.00"
  },
  {
    "COMPOUND": "NC(N)=NCCC[C@H]1NC(=O)CC(=O)N[C@@H](CC(=O)O)C(=O)N[C@H](Cc2ccccc2)CNC1=O",
    "RESULT": "< 4.00"
  }
]

Let's switch to this compound now.
Field: pIC50 (Integrin alpha-5/beta-1 (Homo sapiens, UniProt P05556+P08648)). Entry: CC(C)[C@@H]1NC(=O)[C@@H](Cc2ccccc2)NC(=O)[C@H](CC(=O)O)NC(=O)[C@H](C)NC(=O)[C@H](CCCN=C(N)N)NC1=O (cyclo(AD[dF]VR))
< 4.00
